GST tagged PIP4KtypeIIA (Homo sapiens, UniProt P48426) IC50 data
Sequence (P48426 whole entry): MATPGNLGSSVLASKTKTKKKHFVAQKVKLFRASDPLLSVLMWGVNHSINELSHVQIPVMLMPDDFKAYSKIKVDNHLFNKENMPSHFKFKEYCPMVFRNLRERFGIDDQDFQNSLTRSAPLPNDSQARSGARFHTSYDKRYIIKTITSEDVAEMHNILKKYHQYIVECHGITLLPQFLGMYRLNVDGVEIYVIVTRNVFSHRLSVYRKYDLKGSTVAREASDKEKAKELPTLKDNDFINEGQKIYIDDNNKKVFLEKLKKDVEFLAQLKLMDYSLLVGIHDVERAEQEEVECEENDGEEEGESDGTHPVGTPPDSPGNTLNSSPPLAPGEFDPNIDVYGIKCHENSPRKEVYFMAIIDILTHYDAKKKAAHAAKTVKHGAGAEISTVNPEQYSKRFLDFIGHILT

{"MOLECULE": "CN(C)C(=O)c1ccc(-c2cc(-c3ccnc(CNC(=O)c4ccc(NC(=O)OC(C)(C)C)cc4)c3)cnc2N)nc1", "SYSTEM UNDER TEST": "GST tagged PIP4KtypeIIA (Homo sapiens, UniProt P48426)", "IC50": "> 5000 nM"}
{"MOLECULE": "COc1ncc(-c2cncc(-c3ccc(N4CCCC4=O)cc3)c2)c2c[nH]nc12", "SYSTEM UNDER TEST": "GST tagged PIP4KtypeIIA (Homo sapiens, UniProt P48426)", "IC50": "100 to 1000 nM"}
{"MOLECULE": "CN(C)C(=O)c1ccc(-c2cc(-c3ccnc(CNC(=O)c4ccc(N)cc4)c3)cnc2N)nc1", "SYSTEM UNDER TEST": "GST tagged PIP4KtypeIIA (Homo sapiens, UniProt P48426)", "IC50": "> 5000 nM"}
{"MOLECULE": "Cc1cc(N2CCCC2=O)ccc1-c1cncc(-c2cn(C)c3ncc([C@H](C)O)cc23)c1 (single isomer, unassigned) [197(S)]", "SYSTEM UNDER TEST": "GST tagged PIP4KtypeIIA (Homo sapiens, UniProt P48426)", "IC50": "100 to 1000 nM"}
